assay-summary: Intrinsic dissolution at individual pH sectors (GLpKa, 3 mm disks, 30 min)
Type: physicochemical
recorded-conditions: acetate–phosphate buffer with KCl, aqueous buffer, thermodynamic from solid; pH 7.4; SD in parenthesis, n = 3; read-out: AD Solubility, extrapolated (from Equation (1))
endpoint-name: solubility at 30 min (µM)
Report only the number, with the unit µM understood.

Item under review: `CC(C)(C)C(=O)OCOP(=O)(COCCn1cnc2c(N)ncnc21)OCOC(=O)C(C)(C)C` . Reported solubility at 30 min?
123

====

assay-summary: Intrinsic dissolution at individual pH sectors (GLpKa, 3 mm disks, 30 min)
Format: physicochemical
recorded-conditions: acetate–phosphate buffer with KCl, pH 1.5; read-out: Solubility for AD indicated by the plateaus of the cocrystal profiles
endpoint-name: solubility at 30 min

Item under review: `CC(C)(C)C(=O)OCOP(=O)(COCCn1cnc2c(N)ncnc21)OCOC(=O)C(C)(C)C` . Reported solubility at 30 min?
~300 µM

====

assay-summary: Intrinsic dissolution at individual pH sectors (GLpKa, 3 mm disks, 30 min)
Assay type: physicochemical
recorded-conditions: acetate–phosphate buffer with KCl, aqueous buffer, thermodynamic from solid; pH 1.5; SD in parenthesis, n = 3; read-out: AD Solubility
endpoint-name: solubility at 30 min (µM)
Report only the number, with the unit µM understood.

Item under review: `CC(C)(C)C(=O)OCOP(=O)(COCCn1cnc2c(N)ncnc21)OCOC(=O)C(C)(C)C` . Reported solubility at 30 min?
325

====

assay-summary: Intrinsic dissolution at individual pH sectors (GLpKa, 3 mm disks, 30 min)
Assay type: physicochemical
recorded-conditions: acetate–phosphate buffer with KCl, aqueous buffer, thermodynamic from solid; pH 4.0; SD in parenthesis, n = 3; read-out: AD Solubility, extrapolated (from Equation (1))
endpoint-name: solubility at 30 min (µM)
Report only the number, with the unit µM understood.

Item under review: `CC(C)(C)C(=O)OCOP(=O)(COCCn1cnc2c(N)ncnc21)OCOC(=O)C(C)(C)C` . Reported solubility at 30 min?
139
